system: human umbilical-vein endothelial cells (HUVEC); assay: Cell Migration Assay (CMA) Test, HUVEC (% relative to control); type: cell-based; conditions: Homo sapiens, HUVEC; 1 μg/ml; 24 hours; 60% or less = remarkable inhibition; read-out: CMA (% relative to control)
assayReadout: activity at 1 µg/mL (%)
One number for each entry, in %.

# count of solved cases: 7
**Q:** Provide value of activity at 1 µg/mL for this record tested with human umbilical-vein endothelial cells (HUVEC): CC[C@]12O[C@H]1C[C@@H]1C(C(=O)OC)=CO[C@@H](OC(=O)NC)[C@@H]12
**A:** 99.9

**Q:** Similarly, COC(=O)C1=CO[C@@H](OC(=O)Nc2ccc(F)cc2)[C@@H]2[C@@H]1C[C@@H]1O[C@]21C ?
**A:** 95

**Q:** Similarly, COC(=O)C1=CO[C@@H](OC(=O)Nc2ccccc2)[C@@H]2[C@@H]1C[C@@H]1O[C@]21C ?
**A:** 84.4

**Q:** Similarly, CCN(CC)C(=O)C1=CO[C@@H](OC(=O)NC)[C@@H]2[C@@H]1C[C@@H]1O[C@]21C ?
**A:** 96.4

**Q:** Similarly, CNC(=O)OC1OC=C(C(=O)N(C)C)C2CC3OC3(C)C12 (centres unmarked) ?
**A:** 90.3

**Q:** Similarly, CNC(=O)O[C@@H]1OC=C(C(=O)OC)[C@H]2CC[C@]3(CO3)[C@@H]12 ?
**A:** 100

**Q:** Similarly, CNC(=O)OC1OC=C(C(=O)N2CCN(CCO)CC2)C2CC3OC3(C)C12 (centres unmarked) ?
**A:** 93.4

We now examine a further compound.
**Q:** Provide value of activity at 1 µg/mL for this record tested with human umbilical-vein endothelial cells (HUVEC): CNC(=O)O[C@@H]1OC=C(C(=O)OCc2ccccc2)[C@H]2C[C@@H]3O[C@]3(C)[C@H]12
**A:** 102

----------
system: human umbilical-vein endothelial cells (HUVEC); assay: Cell Migration Assay (CMA) Test, HUVEC (% relative to control); type: cell-based; settings: Homo sapiens, HUVEC; 1 μg/ml; 24 hours; 60% or less = remarkable inhibition; read-out: CMA (% relative to control)
assayReadout: activity at 1 µg/mL (%)
Give bare numbers, in %.

# count of solved cases: 5
**Q:** Provide value of activity at 1 µg/mL for this record tested with human umbilical-vein endothelial cells (HUVEC): C=CCOC(=O)C1=CO[C@@H](OC(=O)NC)[C@@H]2[C@@H]1C[C@@H]1O[C@]21C [compound 9]
**A:** 111

**Q:** Similarly, CNC(=O)O[C@@H]1OC=C(C(=O)O)[C@H]2C[C@@H]3O[C@]3(C)[C@H]12 [compound 1] ?
**A:** 98.5

**Q:** Similarly, O=c1[nH]cc(F)c(=O)[nH]1 [5-FU, 5-fluorouracil, reference compound] ?
**A:** 102

**Q:** Similarly, CNC(=O)O[C@@H]1OC=C(C(=O)OC)[C@H]2C[C@@H]3O[C@]3(CF)[C@@H]12 [compound 50] ?
**A:** 87.9

**Q:** Similarly, CNC(=O)O[C@@H]1OC=C(C(=O)OC)[C@H]2C[C@@H]3OC3(COC(=O)OC)C12 (stereo in doubt) [compound 47] ?
**A:** 95.9

Required: activity at 1 µg/mL, one value per molecule below.
1. CCNC(=O)O[C@@H]1OC=C(C(=O)OC)[C@H]2C[C@@H]3O[C@]3(C)[C@H]12 [compound 30]
2. COC(=O)C1=CO[C@@H](OC(=O)NC(=O)CCl)[C@@H]2[C@@H]1C[C@@H]1O[C@]21C [compound 39]

**A:**
1. 90
2. 110

----------
Give activity at 1 µg/mL for every item shown.
test system: human umbilical-vein endothelial cells (HUVEC); test: Cell Migration Assay (CMA) Test, HUVEC (% relative to control); assay type: cell-based; conditions: Homo sapiens, HUVEC; 1 μg/ml; 24 hours; 60% or less = remarkable inhibition; read-out: CMA (% relative to control)
Give bare numbers, in %.

# count of solved cases: 3
**Q:** Give the measured activity at 1 µg/mL of COC(=O)C1=CO[C@H](OC(=O)NC(=O)c2ccccc2)C2[C@@H]1C[C@@H]1O[C@]21C (stereo in doubt) [compound 42] .
**A:** 90.4

**Q:** Similarly, COC(=O)C1=CO[C@@H](OC(=O)NC(=O)c2ccccc2)[C@@H]2[C@@H]1C[C@@H]1O[C@]21C [compound 41] ?
**A:** 102

**Q:** Similarly, CNC(=O)O[C@@H]1OC=C(C(=O)Oc2ccccc2)[C@H]2C[C@@H]3O[C@]3(C)[C@H]12 [compound 13] ?
**A:** 94.1

Required: activity at 1 µg/mL, one value per compound below.
1. CNC(=O)O[C@@H]1OC=C(C(=O)OC)[C@H]2C[C@@H]3OC3(COC)C12 (stereo in doubt) [compound 49]
2. CNC(=O)O[C@@H]1OC=C(C(=O)NC2CCCCC2)[C@H]2C[C@@H]3O[C@]3(C)[C@H]12 [compound 21]
3. CNC(=O)OC1OC=C(C(=O)N2CCCC2)C2CC3OC3(C)C12 (stereo not shown) [compound 25]
4. COC(=O)C1=CO[C@@H](OC(=O)NC(C)C)[C@@H]2[C@@H]1C[C@@H]1O[C@]21C [compound 34]

**A:**
102
105
91.8
98.2

----------
tested on: human umbilical-vein endothelial cells (HUVEC); assay: Cell Migration Assay (CMA) Test, HUVEC (% relative to control); assay type: cell-based; conditions: Homo sapiens, HUVEC; 1 μg/ml; 24 hours; 60% or less = remarkable inhibition; read-out: CMA (% relative to control)
Give activity at 1 µg/mL for every item shown.
One number for each entry, in %.

**Q:** Give the measured activity at 1 µg/mL of CNC(=O)O[C@@H]1OC=C(C(=O)OC2CCCCC2)[C@H]2C[C@@H]3O[C@]3(C)[C@H]12 .
**A:** 99.4

**Q:** Similarly, CNC(=O)OC1OC=C(C(=O)N2CCN(C)CC2)C2CC3OC3(C)C12 (stereo not shown) ?
**A:** 97.4

**Q:** Similarly, CCCCCCOC(=O)C1=CO[C@@H](OC(=O)NC)[C@@H]2[C@@H]1C[C@@H]1O[C@]21C ?
**A:** 98.6

We now examine a further molecule.
**Q:** Give the measured activity at 1 µg/mL of CNC(=O)OC1OC=C(C(=O)N2CC(C)OC(C)C2)C2CC3OC3(C)C12 (stereo not shown) .
**A:** 96.9

----------
tested on: human umbilical-vein endothelial cells (HUVEC); assay: Cell Migration Assay (CMA) Test, HUVEC (% relative to control); format: cell-based; conditions: Homo sapiens, HUVEC; 1 μg/ml; 24 hours; 60% or less = remarkable inhibition; read-out: CMA (% relative to control)
Give activity at 1 µg/mL for every item shown.
One number for each entry, in %.

# count of solved cases: 3
**Q:** Provide value of activity at 1 µg/mL for this record tested with human umbilical-vein endothelial cells (HUVEC): C=CCCCOC(=O)C1=CO[C@@H](OC(=O)NC)[C@@H]2[C@@H]1C[C@@H]1O[C@]21C [compound 7]
**A:** 82.6

**Q:** Similarly, CNC(=O)O[C@@H]1OC=C(C(=O)OC)[C@H]2CC[C@@]3(CO3)[C@@H]12 [compound 52] ?
**A:** 101

**Q:** Similarly, COC(=O)C1=CO[C@@H](OC(N)=O)[C@@H]2[C@@H]1C[C@@H]1O[C@]21C [compound 29] ?
**A:** 89.9

We now examine a further compound.
**Q:** Provide value of activity at 1 µg/mL for this record tested with human umbilical-vein endothelial cells (HUVEC): CN(C)c1ccc(O)c2c1C[C@H]1C[C@H]3[C@H](N(C)C)C(O)=C(C(N)=O)C(=O)[C@@]3(O)C(O)=C1C2=O [Minocycline, reference compound]
**A:** 67.3

----------
Give activity at 1 µg/mL for every item shown.
tested on: human umbilical-vein endothelial cells (HUVEC); assay: Cell Migration Assay (CMA) Test, HUVEC (% relative to control); assay type: cell-based; conditions: Homo sapiens, HUVEC; 1 μg/ml; 24 hours; 60% or less = remarkable inhibition; read-out: CMA (% relative to control)
One number for each entry, in %.

**Q:** Give the measured activity at 1 µg/mL of CNC(=O)OCC12O[C@H]1C[C@@H]1C(C(=O)OC)=CO[C@@H](OC(=O)NC)C12 (stereo in doubt) .
**A:** 93.3

**Q:** Similarly, CNC(=O)OC1OC=C(C(=O)OCc2ccco2)C2CC3OC3(C)C12 (stereo not drawn) ?
**A:** 101

**Q:** Similarly, CNC(=O)O[C@@H]1OC=C(C(=O)OC)[C@H]2C[C@@H]3O[C@]3(C)[C@H]12 ?
**A:** 68.5

Required: activity at 1 µg/mL, one value per compound below.
1. CO[C@@H]1[C@H](OC(=O)/C=C/C=C/C=C/C=C/C(=O)O)CC[C@]2(CO2)[C@H]1[C@@]1(C)O[C@@H]1CC=C(C)C [Fumagilline, reference compound]
2. CNC(=O)O[C@@H]1OC=C(C(=O)NC)[C@H]2C[C@@H]3O[C@]3(C)[C@H]12
3. COC(=O)C1=CO[C@H](OC(=O)NC(=O)CCl)[C@@H]2[C@@H]1C[C@@H]1O[C@]21C
4. COC(=O)C1=COC(OC(=O)Nc2cccc3ccccc23)C2C1CC1OC12C (stereo not drawn)
5. CN(Cc1cnc2nc(N)nc(N)c2n1)c1ccc(C(=O)N[C@@H](CCC(=O)O)C(=O)O)cc1 [MTX, Methotrexate, reference compound]
6. CCOC(=O)C1=CO[C@@H](OC(=O)NC)[C@@H]2[C@@H]1C[C@@H]1O[C@]21C
7. CCNC(=O)C1=CO[C@@H](OC(=O)NC)[C@@H]2[C@@H]1C[C@@H]1O[C@]21C

**A:**
[95.5, 71.1, 77.3, 102, 102, 70.8, 98.1]

Reference source for all entries: patent US6225478A
